- Test system: PC-3 prostate
- METHOD_SUMMARY: NCI-60 one-dose screen, 48 h (100 = growth as untreated, 0 = no growth, -100 = all killed)
- COND: 10 µM unless noted
This is part of a sample that, as a whole, favours compounds with a hit. Of some 83,000 tested, about 20% had one in any assay.
growth overview
REPORTED_PROPERTY: growth (%)

COMPOUND	VALUE
COC(=O)[C@H](C(C)C)n1c(=O)c2cc(OC)c(OC)cc2c2cnc3[nH]ccc3c21	29.2
C=CC[N+]1(CCO)CCN=C1CCCCCCCCCCCCC (stereo not given)	-29.9
CCc1ccccc1NC(=O)c1sc2nc3c(cc2c1N)C(=O)CCC3	18
CCN(C(=O)CN1CCN(c2cc3c(cc2F)c(=O)c(C(=O)O)cn3C2CC2)CC1)c1nc(-c2ccc(OC)cc2)cs1	20.9
COC(/C=C/c1ccc([N+](=O)[O-])cc1)OC	95.1

###

- Test system: HS 578T breast
- METHOD_SUMMARY: NCI-60 one-dose screen, 48 h
- COND: 10 µM unless noted
This is part of a sample that, as a whole, favours compounds with a hit. Of some 83,000 tested, about 20% had one in any assay. Calls of active or inactive are those of the source. Rule for the calls: active = growth percent below 10; inactive = the rest.
Outcomes: active, inactive

MOLECULE	QUALITATIVE_LABEL
CN1CCN(c2ccc3nc(-c4ccc5nc(-c6ccc(OCCC(C)(C)C)cc6)[nH]c5c4)[nH]c3c2)CC1	inactive
CC(=O)OC1Oc2cc(C)c(C)cc2-c2oc(=O)c(-c3cc4ccc(N(C)C)cc4oc3=O)cc21 (stereo not given)	inactive
O=C(/C=C/c1cc2ccccc2[nH]c1=O)/C=C/c1cc2ccccc2[nH]c1=O	inactive
O=c1c2cccc3c(Nc4c(F)cccc4F)ccc(c32)c2nc3ccccc3n12	inactive
COc1ccc(S(=O)(=O)NCCNc2nccc(-c3c(-c4cccc(N)c4)nc4sccn34)n2)cc1	inactive
CC1=C(NCCN2CCCC2)C(=O)c2c(OCc3cccc(Cl)c3)cccc2C1=O	inactive
Clc1nc(Cl)c2c3c(sc2n1)CCCC3	inactive
Nc1nc2c(c3ncccc13)C(c1ccc(Cl)c(Cl)c1)Cc1ncccc1-2 (stereo not given)	inactive
O=[N+]([O-])c1cccc(C2CC(c3ccccc3)=Nc3ccccc3S2)c1 (stereo not given)	inactive
O=C(/C=C/c1ccc(B(O)O)cc1)/C=C/c1ccc(B(O)O)cc1	active

###

- System: MCF7 breast
- METHOD_SUMMARY: NCI-60 one-dose screen, 48 h
- COND: 10 µM unless noted
Compounds without any hit were thinned out: in the full panel of roughly 83,000, 20% have a hit. Activity calls are given as the source filed them. How the source made its calls: active means growth percent below 10; inactive means the rest.
Labels: active, inactive

STRUCTURE_SMILES	QUALITATIVE_LABEL
O=C1O[C@H]([C@H](O)CO)C(O)=C1O	inactive
O=C(/C=C/c1ccc(Cl)cc1)c1ccc(O)c(CN2CCN(c3cc4c(cc3F)c(=O)c(C(=O)O)cn4C3CC3)CC2)c1	inactive
O=C1c2c[n+](Cc3ccccc3)ccc2-c2nc3ccccc3c3ccnc1c23	active
CCn1cc2c(cc1=O)-c1nc3ccccc3c3ccnc(c13)C2=O	inactive
CCN(C(=O)CN1CCN(c2cc3c(cc2F)c(=O)c(C(=O)O)cn3C2CC2)CC1)c1nc(-c2ccc(OC)cc2)cs1	inactive
